# System: human full-length Nurr1 homodimer (NurRE) (Homo sapiens, UniProt P43354)
# Construct: The full-length human nuclear receptor Nurr1 (pcDNA3.1-hNurr1-NE; Addgene plasmid #102363)
# Sequence (P43354 whole entry): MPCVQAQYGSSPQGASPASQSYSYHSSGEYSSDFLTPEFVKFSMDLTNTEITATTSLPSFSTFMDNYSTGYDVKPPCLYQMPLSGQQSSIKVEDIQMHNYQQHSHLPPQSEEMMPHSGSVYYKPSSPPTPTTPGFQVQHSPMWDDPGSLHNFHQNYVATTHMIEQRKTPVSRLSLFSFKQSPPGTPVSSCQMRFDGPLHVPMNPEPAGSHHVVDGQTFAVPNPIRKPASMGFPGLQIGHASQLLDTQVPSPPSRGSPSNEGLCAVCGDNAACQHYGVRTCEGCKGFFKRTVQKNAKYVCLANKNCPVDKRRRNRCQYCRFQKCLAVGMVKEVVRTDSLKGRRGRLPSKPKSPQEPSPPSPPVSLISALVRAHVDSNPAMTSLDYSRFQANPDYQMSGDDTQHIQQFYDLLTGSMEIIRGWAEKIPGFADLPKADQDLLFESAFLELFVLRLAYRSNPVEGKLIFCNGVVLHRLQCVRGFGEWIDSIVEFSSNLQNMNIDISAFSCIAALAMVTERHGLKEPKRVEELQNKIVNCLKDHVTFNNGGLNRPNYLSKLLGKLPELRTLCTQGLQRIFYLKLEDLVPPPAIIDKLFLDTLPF
# Assay comment: Full-length Nurr1 reporter gene assay (NurRE)
# Recorded conditions: full-length human Nurr1 homodimer, HEK293T
Experimental readout: EC50 (nM)
Write the answer as a number in nM, unit excluded.

The reported EC50 of the compound Cc1nc2c(Cl)cccn2c1NC(=O)c1ccc(-c2ccc(N(C)C)cc2)o1 was 94

---

Exercise: for every item that follows, state its recorded max. activation.
# System: human Nurr1 (hinge region and ligand binding domain) (Homo sapiens)
# Construct: expressed in transfected cells; host or cells: HEK293T
# Sequence (P43354 360-595 limits assumed): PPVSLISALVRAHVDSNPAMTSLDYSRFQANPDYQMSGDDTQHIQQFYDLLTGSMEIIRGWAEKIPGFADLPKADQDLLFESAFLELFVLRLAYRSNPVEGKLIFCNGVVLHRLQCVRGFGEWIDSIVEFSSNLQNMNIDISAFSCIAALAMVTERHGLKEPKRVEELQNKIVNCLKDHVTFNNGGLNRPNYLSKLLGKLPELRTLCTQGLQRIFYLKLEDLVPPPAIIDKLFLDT
# Assay comment: Gal4-Nurr1 hybrid reporter gene assay
# Format: cell-based
# Recorded conditions: maximum effect vs. 0.1% DMSO control; mean ± SD, n ≥ 3

The reported max. activation of the compound CNc1ccc(-c2ccc(C(=O)Nc3c(C)nc4c(Cl)cccn34)o2)cc1 was 1.8 ± 0.1 fold

The reported max. activation of the compound Nc1c(-c2ccc(Cl)cc2)nc2c(Cl)cccn12 was 1.7 ± 0.2 fold

The reported max. activation of the compound Cc1nc2c(Cl)cccn2c1NC(=O)c1ccc(-c2ccc(OC3CC3)cc2)o1 was 1.5 ± 0.2 fold

The reported max. activation of the compound Cc1nc2c(Cl)cccn2c1NC(=O)c1ccc(-c2ccc(N)cc2)o1 was <1.2-fold activation

The reported max. activation of the compound Nc1c(-c2ccccc2)nc2c(Cl)cccn12 was 1.4 ± 0.1 fold

The reported max. activation of the compound Nc1c(-c2ccc(C(F)(F)F)cc2)nc2c(Cl)cccn12 was < 1.2-fold act.

The reported max. activation of the compound Cc1nc2c(Cl)cccn2c1NC(=O)c1ccc(-c2ccc(OC(C)C)cc2)o1 was 2.1 ± 0.2 fold

The reported max. activation of the compound Cc1nc2c(Cl)cccn2c1NC(=O)c1ccc(-c2ccccc2)o1 was 2.1 ± 0.1 fold

The reported max. activation of the compound Cc1cc(N)c2cccc(Cl)c2n1 [Compound 3, 8-chloro-2-methylquinolin-4-amine, reference compound] was 1.7 ± 0.1 fold

The reported max. activation of the compound Cc1cccc(-c2nc3c(Cl)cccn3c2N)c1 was < 1.2-fold act.

The reported max. activation of the compound Nc1c(-c2cccc(Cl)c2)nc2c(Cl)cccn12 was 1.7 ± 0.1 fold

The reported max. activation of the compound Cc1ccc(-c2nc3c(Cl)cccn3c2N)cc1C was 1.6 ± 0.1 fold

The reported max. activation of the compound COc1ccc(-c2ccc(C(=O)Nc3c(C)nc4c(Cl)cccn34)o2)cc1 was 1.7 ± 0.1 fold

The reported max. activation of the compound Cc1nc2c(Cl)cccn2c1N was 2.0 ± 0.1 fold

The reported max. activation of the compound Cc1nc2c(Cl)cccn2c1NC(=O)c1ccc(-c2ccc(OC(F)(F)F)cc2)o1 was 2.0 ± 0.1 fold

---

# System: Nurr1-RXR heterodimer (DR5) (Homo sapiens, UniProt P43354)
# Construct: The full-length human nuclear receptor Nurr1 (pcDNA3.1-hNurr1-NE; Addgene plasmid #102363); host or cells: HEK293T
# Sequence (P43354 whole entry): as the sequence (P43354 whole entry) above
# Sequence (P19793 whole entry partner): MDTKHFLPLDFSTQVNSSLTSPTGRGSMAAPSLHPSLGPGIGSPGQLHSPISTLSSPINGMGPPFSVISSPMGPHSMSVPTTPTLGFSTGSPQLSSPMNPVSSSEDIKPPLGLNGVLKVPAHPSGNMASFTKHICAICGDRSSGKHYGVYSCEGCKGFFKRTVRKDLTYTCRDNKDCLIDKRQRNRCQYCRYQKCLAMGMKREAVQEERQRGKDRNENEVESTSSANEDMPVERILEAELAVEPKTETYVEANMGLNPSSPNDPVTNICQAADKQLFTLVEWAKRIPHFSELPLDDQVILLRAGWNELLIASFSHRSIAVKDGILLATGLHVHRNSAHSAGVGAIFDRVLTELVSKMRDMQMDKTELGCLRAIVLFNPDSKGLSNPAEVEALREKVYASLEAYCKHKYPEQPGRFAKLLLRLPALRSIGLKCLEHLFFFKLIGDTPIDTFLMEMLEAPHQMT
# Assay comment: Full-length Nurr1 reporter gene assay (DR5)
# Format: cell-based
# Recorded conditions: Nurr1-RXR heterodimer, HEK293T, without bexarotene; read-out: EC50(DR5)
Experimental readout: pEC50
Remember, pEC50 is on a log scale: it is -log10 of the molar concentration.

The reported pEC50 of the compound Cc1nc2c(Cl)cccn2c1NC(=O)c1ccc(-c2ccc(N(C)C)cc2)o1 [Compound 36] was 6.78

Hello, the source for this data is paper PMC11217349, in case you need it.
